- Study target: Neuropeptide Y receptor type 1 (Homo sapiens); also: assay procedure not described here
- Sequence (P25929 whole entry): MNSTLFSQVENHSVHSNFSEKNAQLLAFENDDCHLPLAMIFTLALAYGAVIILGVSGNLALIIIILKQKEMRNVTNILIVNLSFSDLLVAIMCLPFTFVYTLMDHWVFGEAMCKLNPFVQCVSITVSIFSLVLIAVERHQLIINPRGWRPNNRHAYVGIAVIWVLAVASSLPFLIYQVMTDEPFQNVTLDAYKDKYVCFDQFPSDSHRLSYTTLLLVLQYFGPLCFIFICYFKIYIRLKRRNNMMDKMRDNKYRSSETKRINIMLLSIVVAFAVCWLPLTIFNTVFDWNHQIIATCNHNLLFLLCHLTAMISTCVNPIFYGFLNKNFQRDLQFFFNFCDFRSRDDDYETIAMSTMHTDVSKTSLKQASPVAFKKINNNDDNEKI
Endpoint label: AC50

Compound	AC50
CN(C)c1cc(NC(=O)CNC(C)(C)C)c(O)c2c1C[C@H]1C[C@H]3[C@H](N(C)C)C(O)=C(C(N)=O)C(=O)[C@@]3(O)C(O)=C1C2=O	> 30 µM
Nc1nc(F)nc2c1ncn2[C@@H]1O[C@H](COP(=O)(O)O)[C@@H](O)[C@@H]1O [FLUDARABINE PHOSPHATE]	> 30 µM
CN1c2ccccc2C(NCCCCCCC(=O)O)c2ccc(Cl)cc2S1(=O)=O (centres undefined)	> 30 µM

Field: next compound
Reported AC50 for Cc1cnc(NC(=O)C2=C(O)c3ccccc3S(=O)(=O)N2C)s1 : what is it?
> 30 µM

###

- Study target: B2 bradykinin receptor (Homo sapiens); also: assay procedure not described here
- Sequence (P30411 whole entry): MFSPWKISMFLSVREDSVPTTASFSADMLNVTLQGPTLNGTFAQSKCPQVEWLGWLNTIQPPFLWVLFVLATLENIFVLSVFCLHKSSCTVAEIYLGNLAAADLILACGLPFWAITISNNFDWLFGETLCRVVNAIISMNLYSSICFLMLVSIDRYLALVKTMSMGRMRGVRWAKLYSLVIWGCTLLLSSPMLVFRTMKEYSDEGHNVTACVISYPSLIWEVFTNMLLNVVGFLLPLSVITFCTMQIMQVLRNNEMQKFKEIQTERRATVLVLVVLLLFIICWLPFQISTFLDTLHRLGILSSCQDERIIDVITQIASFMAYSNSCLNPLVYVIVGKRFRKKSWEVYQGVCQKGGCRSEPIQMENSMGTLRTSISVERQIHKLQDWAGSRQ
AC50 values for the molecules below.

Molecule	Study target	Result
CCCN(CC)C(CC)C(=O)Nc1c(C)cccc1C (centres undefined)	B2 bradykinin receptor (Homo sapiens)	> 30 µM

Which value of AC50 has been reported for CC(C)N(CCCCOCC(=O)NS(C)(=O)=O)c1cnc(-c2ccccc2)c(-c2ccccc2)n1 in the records?
> 10 µM

Request: CC(=O)Oc1ccccc1C(=O)Nc1ncc([N+](=O)[O-])s1 [NITAZOXANIDE]
4.9 µM

Please give the result for O=C(O)c1ccccc1Nc1cccc(C(F)(F)F)c1 too.
> 30 µM

Can you handle CC(C)(C)NCC(O)c1cc(Cl)c(N)c(Cl)c1 (centres undefined) next?
> 30 µM

Next entry: CC[N+]1(C)CCCC(OC(=O)C(O)(c2ccccc2)c2ccccc2)C1 (centres undefined) [PIPENZOLATE]
> 30 µM

Can you handle O=C1Nc2ccc(Cl)cc2C(c2ccccc2)=NC1O (centres undefined) next?
> 30 µM

Now the molecule CN1[C@@H]2CC[C@H]1C[C@@H](OC(=O)c1c[nH]c3ccccc13)C2
> 30 µM

Please do the same for CCCCNc1ccc(C(=O)OCCN(C)C)cc1 as well.
> 30 µM

###

- Study target: Histamine H1 receptor (Homo sapiens, UniProt P35367); also: assay procedure not described here
- Sequence (P35367 whole entry): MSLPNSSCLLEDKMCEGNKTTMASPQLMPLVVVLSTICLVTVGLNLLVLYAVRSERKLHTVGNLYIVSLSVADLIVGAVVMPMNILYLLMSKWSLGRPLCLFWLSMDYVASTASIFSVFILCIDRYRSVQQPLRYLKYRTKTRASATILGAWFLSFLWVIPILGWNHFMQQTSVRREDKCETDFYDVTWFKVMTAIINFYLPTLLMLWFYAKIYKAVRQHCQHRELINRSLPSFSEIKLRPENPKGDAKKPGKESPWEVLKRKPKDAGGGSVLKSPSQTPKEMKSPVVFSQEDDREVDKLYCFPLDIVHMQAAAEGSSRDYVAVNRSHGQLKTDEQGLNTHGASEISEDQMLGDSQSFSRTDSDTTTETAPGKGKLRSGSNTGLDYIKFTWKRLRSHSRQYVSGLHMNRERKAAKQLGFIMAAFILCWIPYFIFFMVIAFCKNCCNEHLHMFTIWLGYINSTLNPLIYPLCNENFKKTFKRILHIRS
Form field: AC50 (one value per entry).

Molecule	Endpoint label	Result
CC(=O)OCC(=O)[C@@]1(O)CC[C@H]2[C@@H]3CCC4=CC(=O)CC[C@]4(C)C3=CC[C@@]21C [ANECORTAVE ACETATE]	AC50	> 10 µM
C#C[C@]1(O)CC[C@H]2[C@@H]3CCC4=CC(=O)CCC4=C3C=C[C@@]21CC	AC50	> 30 µM
CCCC(C)(COC(N)=O)COC(=O)NC(C)C (stereo not drawn)	AC50	> 10 µM
O=C(CCCN1CCC(n2c(O)nc3ccccc32)CC1)c1ccc(F)cc1	AC50	0.73 µM
O=C(O)c1cc(O)c2c3nc4ccccc4oc-3cc(=O)c2n1	AC50	11 µM

Lab request: please report AC50 under test system Histamine H1 receptor (Homo sapiens, UniProt P35367) for CCCN(CC)C(CC)C(=O)Nc1c(C)cccc1C (stereo not drawn); also: assay procedure not described here
> 30 µM

Then this molecule: COc1c(O[C@@H]2O[C@H](CO)[C@@H](O)[C@H](O)[C@H]2O)cc2c(c1OC)-c1ccc(SC)c(=O)cc1[C@@H](NC(C)=O)CC2 [THIOCOLCHICOSIDE]
> 30 µM

Another: Cc1ccc(=O)n(-c2ccccc2)c1
> 30 µM
